Parameter Bulk Brain Homogenate Avg, adjusted free concentration: see the listing below.
# assay.info: brain penetration in mouse brain metastatic tumor model (LC-MS, MALDI IMS)
# Format: in vivo, mice
# applied.conditions: Control mice; LC-MS; 2 hr post final dose
assay.readout: Bulk Brain Homogenate Avg, adjusted free concentration (ng/g)

compound	units.label	measured.result
NC(=O)c1cccc2cn(-c3ccc([C@@H]4CCCNC4)cc3)nc12 [niraparib]	ng/g	111
O=C(c1cc(Cc2n[nH]c(=O)c3ccccc23)ccc1F)N1CCN(C(=O)C2CC2)CC1 [olaparib]	ng/g	2

====

# System: P-gp (Mdr1-a)
# assay.info: in vivo
# applied.conditions: male, rat, brain / plasma, intravenous, Brain:plasma (Kp) ratio, P-gp knock-out rat

compound	Kp
NC(=O)c1cccc2cn(-c3ccc([C@@H]4CCCNC4)cc3)nc12 [niraparib]	3.7

====

# assay.info: in vitro
# applied.conditions: rat, brain homogenate
assay.readout: fraction unbound

compound.structure.string	assay.readout	measured.result
NC(=O)c1cccc2cn(-c3ccc([C@@H]4CCCNC4)cc3)nc12	fraction unbound	0.04

====

# System: P-gp (Mdr1-a) and BCRP (ABCG2)
# assay.info: in vivo
# applied.conditions: male, rat, brain / plasma, intravenous, Unbound brain:plasma ratio (Kp, uu), control rat

compound.structure.string	system.tested	Kp uu
NC(=O)c1cccc2cn(-c3ccc([C@@H]4CCCNC4)cc3)nc12	P-gp (Mdr1-a) and BCRP (ABCG2)	0.1

====

Parameter concentration at 2 h: see the listing below.
# assay.info: brain penetration in mouse brain metastatic tumor model (LC-MS, MALDI IMS)
# Type: in vivo, mice
# applied.conditions: female, CrTac:NCr-Foxnlnu, mouse, plasma, oral, Control mice; po QD 5 days, niraparib 35 mg/kg, olaparib 50 mg/kg; 2 hr post final dose; read-out: Terminal Plasma Avg, total concentration

compound	concentration at 2 h / ng/mL
O=C(c1cc(Cc2n[nH]c(=O)c3ccccc23)ccc1F)N1CCN(C(=O)C2CC2)CC1 [olaparib]	322
NC(=O)c1cccc2cn(-c3ccc([C@@H]4CCCNC4)cc3)nc12 [niraparib]	3100

====

# assay.info: clinical
# applied.conditions: human, non-enhancing tumor tissue / plasma, oral

compound.structure.string	Kp
NC(=O)c1cccc2cn(-c3ccc([C@@H]4CCCNC4)cc3)nc12	4.27

====

# assay.info: physchem
# applied.conditions: aqueous buffer

molecule	solubility
NC(=O)c1cccc2cn(-c3ccc([C@@H]4CCCNC4)cc3)nc12 [niraparib]	700 to 1100 µg/mL

====

# Test system: P-gp (Mdr1-a) and BCRP (ABCG2)
# assay.info: in vivo
# applied.conditions: male, rat, brain / plasma, intravenous, Brain:plasma (Kp) ratio, control rat
# Procedure: At least three days prior to the start of the study, six male rats per group (total 24 rats) received surgically implanted femoral vein and carotid artery catheters for infusion of the test molecule and blood sampling, respectively. Doses were filtered prior to administration and the actual dose administered to the animals was quantified. All PK parameters were calculated based on the actual dose administered to each animal. […] LC-MS/MS method was used to quantitate drug concentrations. […]
assay.readout: Kp

compound.structure.string	system.tested	measured.result
NC(=O)c1cccc2cn(-c3ccc([C@@H]4CCCNC4)cc3)nc12	P-gp (Mdr1-a) and BCRP (ABCG2)	0.47

====

# assay.info: clinical
# applied.conditions: human, enhancing tumor tissue / plasma, oral
assay.readout: Kp uu

compound.structure.string	measured.result
NC(=O)c1cccc2cn(-c3ccc([C@@H]4CCCNC4)cc3)nc12	1.8
